test system: A/Victoria/3/75 (H3N2), M2 WT; assay: microbe, parasite or virus in culture; type: cell-based; conditions: Influenza A virus, H3N2, MDCK, read-out: EC50 A/Victoria/3/75 (H3N2)
pEC50: −log10 of the molar value.
The label depends only on pEC50: 1.0 if it is at least 6, 0.0 if it is smaller.

Below are worked cases with known answers.
compound: CC(N)C12CC3CC(CC(C3)C1)C2 (centres unmarked) [Rimantadine (2), Rimantadine, reference compound]
tested_target: A/Victoria/3/75 (H3N2), M2 WT
class_name: 1.0
//
compound: CC(C)(N)C12CC3CC(CC(C3)C1)C2 [Compound 259, 2-(adamantan-1-yl)propan-2-amine]
tested_target: A/Victoria/3/75 (H3N2), M2 WT
class_name: 0.0
//
compound: CCCC1(N)C2CC3CC(C2)CC1C3 (centres unmarked) [Compound 7]
tested_target: A/Victoria/3/75 (H3N2), M2 WT
class_name: 0.0

--- query ---
(Q) Could you please find out whether NC12CC3CC(CC(C3)C1)C2 [Amantadine (1), Amantadine, reference compound] has pEC50 that meets 6 or exceeds it?
(A) 0.0
